Give z-score for every item shown.
test: basal HepG2 mitochondrial membrane potential changes, profiling panel, cell-based, JC-1 fluorescence, 24 h, 100 nL compound (AID 1167); conditions: higher = more signal; note: test concentration not given here
Enter a number only.

Enquiry: What does the data say about its z-score? Entry: CCC[C@@H]1[C@@H](Sc2ccccc2)[C@@H](C(=O)O)[C@H](c2ccc(C)cc2)N1S(=O)(=O)c1ccc(C)cc1
Return: -0.772

Enquiry: Repeat with O=C1O[C@@H](c2ccccc2)[C@@H](c2ccccc2)N2[C@@H](c3ccc(O)cc3)[C@]3(C(=O)Nc4ccc(C#CC5=CCCCC5)cc43)[C@@H](C(=O)N3CCCCCCC3)[C@H]12
Return: 0.41

Enquiry: Repeat with CCOC(=O)C1=CCC(c2cc3ccccc3[nH]2)N(S(=O)(=O)c2ccccc2[N+](=O)[O-])C1 (centres undefined)
Return: 1.17

Enquiry: Repeat with C=CCC(OC(C)=O)[C@@H]1[C@@H](N(Cc2cccc3ccccc23)C(=O)c2cccc3ccccc23)c2cc(OCCCO)ccc2N1C(=O)Cc1ccc2ccccc2c1 (some centres undefined)
Return: 2.09

Enquiry: Repeat with Cc1ccc(S[C@]2(C(=O)NCCN3CCOCC3)CC(=O)N(C3CCCCC3)[C@@H]2c2ccc(CO)cc2I)cc1
Return: 2.54

Enquiry: Repeat with CO[C@H]1O[C@H](CO)[C@@H](OC(=O)Nc2ccc(C(F)(F)F)cc2)[C@H](OC(=O)Nc2ccccc2-c2ccccc2)[C@H]1OC(=O)Nc1ccccc1-c1ccccc1
Return: 0.235

Enquiry: Repeat with CCCCNC(=O)c1ccc(C#C[Si](C)(C)C)c(OC(C)=O)c1
Return: -1.12

Enquiry: Repeat with Cc1ccc(S[C@]2(C(=O)NCC(F)(F)F)CC(=O)N(C3CCCCC3)[C@@H]2c2ccc(CO)cc2)cc1
Return: 1.11

Enquiry: Repeat with C=CCOC(=O)[C@@H]1[C@H]2C(=O)O[C@H](c3ccccc3)[C@H](c3ccccc3)N2[C@H](c2ccc(OCCOC(=O)[C@H]3C[C@H]4C(=O)NCC(=O)N4[C@H]3c3ccc(O)cc3)cc2)[C@@]12C(=O)Nc1ccc(I)cc12
Return: -1.59

Enquiry: Repeat with COCCOC(=O)N1C(=O)[C@@]2(c3cc(C#CCCO)ccc31)[C@H](c1ccccc1OCCO)N1[C@H](c3ccccc3)[C@H](c3ccccc3)OC(=O)[C@H]1[C@@H]2C(=O)N1CCc2cc(OC)c(OC)cc2C1
Return: 1.13

Enquiry: Repeat with CCOC(=O)C1=C(C(=O)OCC)N(S(=O)(=O)CC[Si](C)(C)C)[C@H](c2ccccc2)CC1
Return: 3.63

Enquiry: Repeat with N[C@@H](Cc1ccccc1)Cn1cc(C2(O)CCCCC2)nn1
Return: -0.739

Enquiry: Repeat with C=C(/C(=C/C[C@@H](OC(C)=O)c1ccccc1OCCO)c1cc(C(=O)OC)ccc1OC)C(C)C
Return: 0.605

Enquiry: Repeat with COCCOC(=O)N1C(=O)[C@@]2(c3cc(C#CC4=CCCCC4)ccc31)[C@H](c1ccccc1OCCO)N1[C@H](c3ccccc3)[C@H](c3ccccc3)OC(=O)[C@H]1[C@@H]2C(N)=O
Return: -0.985

Enquiry: Repeat with C#CCN=C(N)N
Return: -0.794

Enquiry: Repeat with CC(=O)c1ccc(C(O)C2C=CC3C(=O)N(C)C(=O)C3N2NC(=O)OC(C)(C)C)cc1 (centres undefined)
Return: -1.29

Enquiry: Repeat with CCOC(=O)C[C@H]1[C@H](OC(=O)c2ccc(-c3ccccc3)cc2)[C@@H](NC(=O)c2ccc3ccccc3c2)c2cc(OCCCO)ccc2N1C(=O)c1ccccc1
Return: 0.762

Enquiry: Repeat with [N-]=[N+]=NCc1ccccc1C[C@]1(C(=O)O)COC(c2ccc(OCCCO)cc2)=N1
Return: -0.578

Enquiry: Repeat with CCCCCN1CC=CC23O[C@@H]4C=CCOC(=O)[C@@H]4[C@H]2C(=O)N(CCCCCO)[C@@H]3C1=O (some centres undefined)
Return: -0.012

Origin of values: PubChem BioAssay
